Test system: HCT-116 colon
assay-info: NCI tumour cell line growth inhibition, 48 h
property-label: TGI

Cc1ccc2[nH]c(C(=O)NN3C(=O)CSC34CCCC(C)C4)c(-c3ccccc3)c2c1 (stereo not given) ... 31 µM
CS(=O)(=O)OCCN(CCOS(C)(=O)=O)c1ccc(C=Nc2ccc3oc(=O)ccc3c2)cc1 ... > 100 µM
COc1ccc(C2CC(=O)Oc3ccccc3O2)cc1 (stereo not given) ... > 100 µM

Q) Dear colleague, I am looking for the recorded TGI of the following compound: NC1=NC2(O)c3ccccc3C(=O)C2(O)N1 (stereo not given)
A) > 100 µM

Q) Which TGI value belongs to `COc1ccc(/C=C/c2nc(=S)[nH][nH]2)cc1` ?
A) > 100 µM

Q) TGI for `CC1(C)C=[N+]([O-])C(C)(C)N1` ?
A) > 100 µM

Q) GET /values?readout=TGI&item= CCOC(=O)C1=C(C)N(C)C(=S)NC1c1cccc(O)c1 (stereo not given)
A) > 100 µM

Q) Given the compound `O=C1C(Cl)=C(Nc2cccc(C(F)(F)F)c2)C(=O)N1Cc1ccccc1Cl` , what is its reported TGI?
A) 5.27 µM

Q) What does the record list as TGI for `COc1ccc(/C(Cl)=C(\C=O)c2ccc(OC)c(OC)c2)cc1OC` ?
A) > 100 µM

Q) # TGI lookup, item COC(=O)C1=C(c2cc(OC)c(OC)c(OC)c2)OC(c2cc(OC)c(OC)c(OC)c2)C1COC(C)=O (stereo not given)
A) > 100 µM

Q) I'd like to know its TGI. The compound in question is `O=C(CSCC(=O)N/N=C/c1cccc(OCc2ccccc2)c1)N/N=C/c1cccc(OCc2ccccc2)c1`
A) > 100 µM

Q) Given the entry `CC(=O)O[C@H]1C(=O)[C@@]2(C)[C@H]([C@H](OC(=O)c3ccc([N+](=O)[O-])cc3)[C@]3(O)C[C@H](OC(=O)[C@H](O)[C@@H](NC(=O)c4ccccc4)c4ccccc4)C(C)=C1C3(C)C)[C@]1(OC(C)=O)CO[C@@H]1C[C@@H]2O` , report its measured TGI.
A) > 25 µM

Q) Please report the recorded TGI for `N#CC1=C(C#N)/C(=C(\C#N)C(C#N)C#N)N=C1N` .
A) > 100 µM

Q) What value of measured TGI is listed for `CN(C)c1ccc(/C=C2\N=C(N/N=C/c3ccccc3)NC2=O)cc1` ?
A) > 100 µM

Q) Recorded TGI of CC1(C)CCCCCCCCCC(C)(CCCO)C1=O (stereo not given) , please.
A) 31.2 µM

Q) Could you tell me which TGI is on file for `Cn1cc2c(=O)n3ncn(-c4ccc(Br)cc4)c3nc2n1` ?
A) > 100 µM

Q) Request the reported TGI associated with `COc1cc(-c2nc(SCC(=O)Nc3ccc(C(C)=O)cc3)[nH]c(=O)c2C#N)cc(OC)c1OC`
A) > 100 µM

Q) Can you look up the measured TGI of `C=C1CC2(OC1=O)c1ccccc1C=Cc1ccccc12` for me?
A) 5.4 µM

Q) Dear colleague, I am looking for the recorded TGI of the following compound: CC(=O)NCC1(c2ccccc2)CCN(CC2COc3ccccc3O2)CC1 (stereo not given)
A) > 100 µM

Q) Could you tell me which TGI is on file for `Cc1cc(NC(=O)C(=O)Cc2cnc3ccccc3n2)c(S(=O)(=O)O)cc1Cl` ?
A) > 100 µM
